Each entry below carries its recorded IC50.
Target: Acetylcholinesterase (Homo sapiens, UniProt P22303)
Sequence (P22303 whole entry): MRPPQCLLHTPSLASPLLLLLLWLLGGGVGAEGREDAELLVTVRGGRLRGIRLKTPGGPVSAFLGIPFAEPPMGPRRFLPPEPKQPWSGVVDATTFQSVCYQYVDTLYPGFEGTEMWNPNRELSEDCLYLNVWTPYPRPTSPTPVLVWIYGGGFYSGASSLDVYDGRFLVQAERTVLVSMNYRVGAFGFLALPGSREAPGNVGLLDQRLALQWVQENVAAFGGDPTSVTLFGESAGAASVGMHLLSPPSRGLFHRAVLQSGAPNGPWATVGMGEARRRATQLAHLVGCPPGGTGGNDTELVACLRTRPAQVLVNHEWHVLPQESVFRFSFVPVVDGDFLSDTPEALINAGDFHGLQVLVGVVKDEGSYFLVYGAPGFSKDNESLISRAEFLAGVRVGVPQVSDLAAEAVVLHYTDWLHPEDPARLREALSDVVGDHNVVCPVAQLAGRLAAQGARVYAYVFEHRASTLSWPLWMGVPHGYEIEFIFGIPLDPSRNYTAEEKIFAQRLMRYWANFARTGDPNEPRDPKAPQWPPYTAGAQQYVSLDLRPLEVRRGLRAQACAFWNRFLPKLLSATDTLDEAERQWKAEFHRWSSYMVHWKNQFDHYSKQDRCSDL
Assay: Inhibition of human recombinant AChE by Ellman method

{"columns": ["Molecular string", "IC50"],
 "data": [
  ["CCN(Cc1ccccc1)Cc1ccc(-c2cc3ccc(OCCNC(=O)/C=C/c4cc(F)cc(F)c4)cc3oc2=O)cc1", "4.57 µM"],
  ["CCN(Cc1ccccc1)Cc1ccc(-c2cc3ccc(OCCNC(=O)/C=C/c4ccc(Cl)c(Cl)c4)cc3oc2=O)cc1", "4.23 µM"],
  ["CCN(Cc1ccccc1)Cc1ccc(-c2cc3cc(OCCNC(=O)/C=C/c4ccc(Cl)c(Cl)c4)ccc3oc2=O)cc1", "267 µM"],
  ["CCN(Cc1ccccc1)Cc1ccc(-c2cc3cc(OCCNC(=O)CCc4ccc(F)c(F)c4)ccc3oc2=O)cc1", "2.77 µM"],
  ["CCN(Cc1ccccc1)Cc1ccc(-c2cc3cc(OCCNC(=O)/C=C/c4cc(F)cc(F)c4)ccc3oc2=O)cc1", "7.16 µM"],
  ["CCN(Cc1ccccc1)Cc1ccc(-c2cc3cc(OCCNC(=O)Cc4cc(F)cc(F)c4)ccc3oc2=O)cc1", "0.551 µM"],
  ["CCN(Cc1ccccc1)Cc1ccc(-c2cc3ccc(OCCNC(=O)Cc4cc(F)cc(F)c4)cc3oc2=O)cc1", "0.181 µM"],
  ["CCN(Cc1ccccc1)Cc1ccc(-c2cc3ccc(OCCNC(=O)CCc4ccc(F)c(F)c4)cc3oc2=O)cc1", "0.327 µM"]
]}

---

Biological target: Beta-secretase 1 (Homo sapiens)
Sequence (P56817 whole entry): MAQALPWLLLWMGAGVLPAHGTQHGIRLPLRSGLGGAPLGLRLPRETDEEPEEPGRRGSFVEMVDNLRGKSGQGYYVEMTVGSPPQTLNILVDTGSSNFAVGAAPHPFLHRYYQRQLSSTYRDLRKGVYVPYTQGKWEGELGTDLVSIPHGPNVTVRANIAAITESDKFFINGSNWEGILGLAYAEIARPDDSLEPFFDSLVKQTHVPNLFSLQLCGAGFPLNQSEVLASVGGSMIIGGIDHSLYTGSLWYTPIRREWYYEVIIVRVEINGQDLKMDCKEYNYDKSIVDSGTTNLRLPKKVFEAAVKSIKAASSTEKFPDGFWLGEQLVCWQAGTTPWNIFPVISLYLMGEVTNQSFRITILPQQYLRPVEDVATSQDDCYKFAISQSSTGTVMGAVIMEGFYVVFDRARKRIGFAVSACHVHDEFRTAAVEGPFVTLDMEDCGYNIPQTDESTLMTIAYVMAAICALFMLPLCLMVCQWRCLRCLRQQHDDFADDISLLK
Assay: Inhibition of human recombinant BACE1 by spectrofluorimetric method
pIC50: −log10 of the molar value.
Each entry below carries its recorded pIC50.

{"columns": ["Molecular string", "pIC50"],
 "data": [
  ["CCN(Cc1ccccc1)Cc1ccc(-c2cc3cc(OCCNC(=O)/C=C/c4cc(F)cc(F)c4)ccc3oc2=O)cc1", 7.00],
  ["CCN(Cc1ccccc1)Cc1ccc(-c2cc3cc(OCCNC(=O)/C=C/c4ccc(Cl)c(Cl)c4)ccc3oc2=O)cc1", 6.88],
  ["CCN(Cc1ccccc1)Cc1ccc(-c2cc3cc(OCCNC(=O)CCc4ccc(F)c(F)c4)ccc3oc2=O)cc1", 6.94],
  ["CCN(Cc1ccccc1)Cc1ccc(-c2cc3ccc(OCCNC(=O)/C=C/c4cc(F)cc(F)c4)cc3oc2=O)cc1", 6.92],
  ["CCN(Cc1ccccc1)Cc1ccc(-c2cc3ccc(OCCNC(=O)Cc4cc(F)cc(F)c4)cc3oc2=O)cc1", 6.82],
  ["CCN(Cc1ccccc1)Cc1ccc(-c2cc3ccc(OCCNC(=O)/C=C/c4ccc(Cl)c(Cl)c4)cc3oc2=O)cc1", 6.82],
  ["CCN(Cc1ccccc1)Cc1ccc(-c2cc3ccc(OCCNC(=O)CCc4ccc(F)c(F)c4)cc3oc2=O)cc1", 6.94],
  ["CCN(Cc1ccccc1)Cc1ccc(-c2cc3cc(OCCNC(=O)Cc4cc(F)cc(F)c4)ccc3oc2=O)cc1", 6.83]
]}
